All values here come from PubChem BioAssay AID1745844.

test system: rodent lifetime carcinogenesis bioassay, tumor incidence TD50; test: carcinogenic potency in animals, long-term in vivo studies, CPDB compilation (AID 1745844); conditions: mouse; strain Swiss albino; males; in drinking water; site: lung; lesion: several types; types named in the paper; dosed 83 weeks; study length 83 weeks
Readout name: TD50

Ask: Given O=CNNC=O , state its recorded TD50.
Result: 806 mg/kg/day

====

test system: rodent lifetime carcinogenesis bioassay, tumor incidence TD50; experiment: carcinogenic potency in animals, long-term in vivo studies, CPDB compilation (AID 1745844); conditions: rat; strain Fischer 344; females; in drinking water; site: liver; lesion: neoplastic nodule; dosed 96 weeks; study length 97 weeks
Readout name: TD50 (mg/kg/day)
Field format: number, assumed mg/kg/day, no unit text.

Ask: Can you share its TD50? I mean this molecule: COc1cc(-c2ccc(N=Nc3c(S(=O)(=O)O)cc4cc(S(=O)(=O)O)cc(N)c4c3O)c(OC)c2)ccc1N=Nc1c(S(=O)(=O)O)cc2cc(S(=O)(=O)O)cc(N)c2c1O
Result: 429
